The reported numbers originate from patent US20210147523A1.

Biological target: T1, human SPNS2 K136A mutant (human, UniProt Q8IVW8 1-549)
T1 sequence: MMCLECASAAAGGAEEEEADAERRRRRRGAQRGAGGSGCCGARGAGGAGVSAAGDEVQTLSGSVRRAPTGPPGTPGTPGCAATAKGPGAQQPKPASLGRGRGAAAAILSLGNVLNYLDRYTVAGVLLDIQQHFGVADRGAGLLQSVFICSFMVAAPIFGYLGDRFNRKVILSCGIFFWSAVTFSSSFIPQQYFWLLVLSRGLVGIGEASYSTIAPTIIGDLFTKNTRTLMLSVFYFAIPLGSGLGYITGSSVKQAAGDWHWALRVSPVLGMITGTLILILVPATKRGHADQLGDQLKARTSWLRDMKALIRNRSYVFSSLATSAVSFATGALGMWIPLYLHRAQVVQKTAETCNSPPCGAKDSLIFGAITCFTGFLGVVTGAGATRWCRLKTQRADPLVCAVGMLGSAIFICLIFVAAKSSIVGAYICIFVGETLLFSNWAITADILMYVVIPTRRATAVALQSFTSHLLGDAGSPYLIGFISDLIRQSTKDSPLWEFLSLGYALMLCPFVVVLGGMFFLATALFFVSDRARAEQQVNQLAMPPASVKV
Assay: flow cytometry
quantity_measured: binding ratio vs native type

Please look up its binding ratio vs native type: 89-1207D (antibody, IgG2b, V domains shown) VH: EVQLVGSGGGLVQPGRSMKLSCEASGFTFSNHYMAWVRQAPTKGLEWVATISTGGGNTYYRDSVKGRFTISRDNARSILSLQMDSLRSEDTATYYCARQDYSNYMGGFAYWGQGTLVTVSS VL: QFVLTQPNSVSTNLGSTVKLSCTRSIGNIGNNYVNWYKQYEGRSPTTMIYRDDERPDGVPDRFSGSIDRSSNSALLTINNVQTEDEADYFCQSFSSGMFIFGGGTKLTVL
< 0.5 ratio

Input 96-1403F (antibody, IgG2b, V domains shown) VH: EVQLVETGGGLVRPGSSLKLSCATSGFTFSDTWMSWVRQAPGKGLEWVALIKDKNSNSEANYAESIKGRFTISRDDSKSRVYLQMNTLRDQDTATYYCTRHEDFYYYSGYYFDYWGQGVMVTVSS VL: DIVLTQSPPTLSVTPGESVSLSCRASQGISTSIHWYQQRSNESPRLLIKYASQSIAGIPSRFSGSGSGTDFILSINRVESEDFSVYYCQQTYSLPLTFGPGTKLEVKR
< 0.5 ratio

// switching to the query binder
I would be grateful if you could share the reported binding ratio vs native type for 18-0211B (antibody, IgG2b, V domains shown) VH: AVQLVGSGGGLVQPGRSMKLSCEASGFTFSNHYMAWVRQAPTRGLEWVATISTGGGNTYYRDSVKGRFTISRDNTRSTLSLQMDSLRSEDTATYYCTRQDYTNYMGGFAYWGQGTLVTVSS VL: QFVLTQPNSVSTNLGSTVKLSCTRSIGNIGNNYVNWYKQYEGRSPTTLIYRDDERPDGVPDRFSGSIDRSSNSALLTINSVQTEDGADYFCQSFSSGIFIFGGGTTLTVL .
< 0.5 ratio
